Recorded Liver by entry
Experiment: Rat biodistribution of Tc-99m complexes
Details: 60 min p.i.
Use % Injected dose/organ as the unit, but write only the number.

>>> data_value("COC(C)CCP(CCC(C)OC)CCP(CCC(C)OC)CCC(C)OC (stereo not drawn) [Compound 15]")
2.24
>>> data_value("CCOCP(CCCP(COCC)COCC)COCC [Compound 33]")
11.4
>>> data_value("C1OCC(CP(CCP(CC2COCO2)CC2COCO2)CC2COCO2)O1 (stereo not drawn) [Compound 21]")
1.95
>>> data_value("COC(C)CP(CCP(CC(C)OC)CC(C)OC)CC(C)OC (stereo not drawn) [Compound 11]")
12.0
>>> data_value("CCOC(C)CP(CCP(CC(C)OCC)CC(C)OCC)CC(C)OCC (stereo not drawn) [Compound 13]")
10.6
>>> data_value("CC1(C)OCC(CP(CCP(CC2COC(C)(C)O2)CC2COC(C)(C)O2)CC2COC(C)(C)O2)O1 (stereo not drawn) [Compound 22]")
3.41

Which Liver is listed for CCOC(CCP(CCC(OCC)OCC)CCP(CCC(OCC)OCC)CCC(OCC)OCC)OCC [Compound 20] ? 14.90

Param item = CCOCCP(CCOC(C)C)CCP(CCOCC)CCOC(C)C (stereo not drawn) [Compound 31] ; retrieve measured Liver. 12.4

So what's the measured Liver for this one? CCOCCCP(CCOC)CCP(CCCOCC)CCOC (stereo not drawn) [Compound 30] 1.89

Data origin: patent US5045302A
